experiment: luminescence decrease from intact luciferase reporter – cell-based, single concentration, SaOS-2, counter-screen for Mdm2/MdmX interaction inhibitor project, confirmation (AID 504607); settings: SaOS-2 full-length luciferase counterscreen, at 8 µM;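 also: p53-null SaOS-2 cells with luciferase driven by a doxycycline-inducible promoter; compound on cells about two nights before reading with doxycycline added after day one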
Hit rate of the full screen: of about 6,200 compounds, about 4,800 (77%) were called active.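 The calls were made as follows: active = mean inhibition at 8 µM reaching about 37%, which flags the compound as non-specific (limit read from the data); inactive = the rest.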 The set was probably picked from earlier hits. The list is a sample of the results.
Permitted responses: 1 (yes) (active), 0 (no) (inactive)

Reference set, count: 5
INSERT INTO results (smiles_data, assigned_category) VALUES
  ('CC(C)(C)Nc1nc(-c2ccccn2)nc2ccccc12', '0 (no)'),
  ('CCc1ccc(CNC(=O)C2CCN(c3nnc(C)c4c(C)n(-c5ccc(C)cc5)nc34)CC2)cc1', '0 (no)'),
  ('COc1ccc(-c2nn(C)c(=O)c3ccccc23)cc1NC(=O)COc1ccccc1', '1 (yes)'),
  ('CCCCCCCCCCOC(=O)Cn1c(COc2cccc(OC)c2)[n+](C)c2ccccc21', '0 (no)'),
  ('CSc1nnc(NC(=O)c2nc(S(=O)(=O)Cc3ccc(C)cc3)ncc2Cl)s1', '1 (yes)');

Please find the next compound below.
Req: Tell me the recorded outcome of this test for CCCCCCCCCCOC(=O)Cn1c(COc2ccc(C)cc2)[n+](C)c2ccccc21 .
Resp: 1 (yes)

Values from PubChem BioAssay AID504607
